PROTOCOL_DESCRIPTION: compounds altering HSF1 focus formation in cells – imaging, Selleck Cancer Library (AID 1347162)
ASSAY_CONDITIONS: human cells, HSF1 nuclear foci imaging, at 10 µM; measured here: cell number
As shown below, each of these molecules has a reported cell count value.
Just the number, please, no unit after it.

Would you please look over these solved cases?
[
  {
    "MOLECULE": "CC[C@]1(O)C[C@@H]2CN(CCc3c([nH]c4ccccc34)[C@@](C(=O)OC)(c3cc4c(cc3OC)N(C=O)[C@@H]3C45CCN4CC=C[C@](CC)([C@H]45)[C@@H](OC(C)=O)[C@]3(O)C(=O)OC)C2)C1 (stereo partly specified)",
    "RESULT_VALUE": 6870
  },
  {
    "MOLECULE": "Cc1csc(-c2nnc(Nc3ccc(Oc4ncccc4-c4ccnc(N)n4)cc3)c3ccccc23)c1",
    "RESULT_VALUE": 7110
  }
]

# input molecule: `CCCCn1c(=O)n(Cc2ccccc2F)c(=O)c2[nH]c(Cc3ccc(NC(C)=O)cc3)nc21` ; wanted: its cell count
6960

Do the same for `CS(=O)(=O)N1CCc2c(-c3cnc(N)nc3)nc(N3CCOCC3)nc21` please
7210

Do the same for `COc1ccc(CCN2CCN(CCCc3ccccc3)CC2)cc1OC` please
6890

Do the same for `COc1nc(-c2ccc3c(c2)OCO3)n(-c2ccc(NC(=O)CSc3ccccc3)cc2)n1` please
6960

====

PROTOCOL_DESCRIPTION: drug combination growth inhibition, ovarian cancer – cell-based, oncology-focused library, rucaparib conditional, profiling panel (AID 1508598)
ASSAY_CONDITIONS: patient-derived ovarian cancer cells, CellTiter-Glo viability, 144 h; at 0.0195 µM; OCI-C5x cells; without rucaparib; stronger effect = lower value
As shown below, each of these molecules has a reported viability value.
Kindly answer with a numeric value in %, unit omitted.

Would you please look over these solved cases?
[
  {
    "MOLECULE": "O=c1cc(N2CCOCC2)oc2c(-c3cccc4c3sc3ccccc34)cccc12",
    "QUANTITY_KIND": "viability",
    "UNITS_OF_MEASURE": "%",
    "RESULT_VALUE": 103
  },
  {
    "MOLECULE": "CN(C)CC[C@H](CSc1ccccc1)Nc1ccc(S(=O)(=O)NC(=O)c2ccc(N3CCN(Cc4ccccc4-c4ccc(Cl)cc4)CC3)cc2)cc1[N+](=O)[O-]",
    "QUANTITY_KIND": "viability",
    "UNITS_OF_MEASURE": "%",
    "RESULT_VALUE": 114
  },
  {
    "MOLECULE": "Cc1csc(-c2nnc(Nc3ccc(Oc4ncccc4-c4ccnc(N)n4)cc3)c3ccccc23)c1",
    "QUANTITY_KIND": "viability",
    "UNITS_OF_MEASURE": "%",
    "RESULT_VALUE": 88.5
  },
  {
    "MOLECULE": "CC(C)Oc1ccc(C(=O)N[C@H](CNC(=O)CN(C)C)Cc2ccc(-c3cn4cccc([C@H](C)O)c4n3)cc2)cc1Cl",
    "QUANTITY_KIND": "viability",
    "UNITS_OF_MEASURE": "%",
    "RESULT_VALUE": 73.7
  },
  {
    "MOLECULE": "Cc1ccc(NC(=O)c2cccc(C(C)(C)C#N)c2)cc1Nc1ccc2ncn(C)c(=O)c2c1",
    "QUANTITY_KIND": "viability",
    "UNITS_OF_MEASURE": "%",
    "RESULT_VALUE": 124
  },
  {
    "MOLECULE": "N#CCNC(=O)c1ccc(-c2ccnc(Nc3ccc(N4CCOCC4)cc3)n2)cc1",
    "QUANTITY_KIND": "viability",
    "UNITS_OF_MEASURE": "%",
    "RESULT_VALUE": 104
  }
]

# input molecule: `Nc1ccn([C@@H]2O[C@H](CO)[C@@H](O)C2(F)F)c(=O)n1` ; wanted: its viability
58.3

Do the same for `Nc1nccc(Oc2ccc(NC(=O)c3c[nH]cc(-c4ccc(F)cc4)c3=O)cc2F)c1Cl` please
140

Do the same for `Cc1nc2c(-c3cnc(N)nc3)nc(N3CCOCC3)nc2n1C(C)C` please
114

====

PROTOCOL_DESCRIPTION: viability loss in pontine glioma line – cell-based, SU-DIPG-XXV, MIPE5.0, CellTiter-Glo, qHTS, dose response (AID 1347065);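 also: cells exposed to compound for 48 hours before ATP readout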
ASSAY_CONDITIONS: CellTiter-Glo ATP luminescence
Results filed as inconclusive are left out. Active and inactive are the calls of the source. The limit is not given here; nearly all actives have AC50 up to about 26 µM.
Return exactly one item of active, inactive

Example entries and their recorded answers appear below.
[
  {
    "MOLECULE": "CCNC(=O)CCC/C=C\\C[C@@H]1[C@@H](/C=C/C(O)CCc2ccccc2)[C@@H](O)C[C@@H]1O (some centres not stated)",
    "QUALITATIVE_LABEL": "inactive"
  },
  {
    "MOLECULE": "Nc1cccc(-c2cc3c(Oc4cccc(O)c4)ncnc3[nH]2)c1",
    "QUALITATIVE_LABEL": "active"
  },
  {
    "MOLECULE": "c1ccc(Cn2c(-c3ccc(OCC(C4CCNCC4)n4c(-c5ccccc5)nc5ccccc54)cc3)nc3ccccc32)cc1 (configuration not stated)",
    "QUALITATIVE_LABEL": "active"
  },
  {
    "MOLECULE": "N#Cc1ccc(COC[C@H]2O[C@@H](n3c(NCc4ccc(Cl)c(Cl)c4)nc4c(N)ncnc43)[C@H](O)[C@@H]2O)cc1",
    "QUALITATIVE_LABEL": "active"
  },
  {
    "MOLECULE": "CNC(=O)c1ccccc1Nc1nc(Nc2ccc(N3CCOCC3)cc2OC)ncc1Cl",
    "QUALITATIVE_LABEL": "active"
  }
]

Please let me know the test result on file for `C[C@@H]1C[C@H](N)C[C@H](c2ccncc2NC(=O)c2ccc(F)c(-c3c(F)cccc3F)n2)C1` .
active

Do the same for `CC(=O)Nc1ccc([C@H](C)C(=O)Nc2ncc(C(C)C)s2)cc1` please
active

====

PROTOCOL_DESCRIPTION: MELAS cybrid and Rieske KO viability enhancers – cell-based, MELAS cybrids, Rieske KO mouse fibroblasts, CellTiter-Glo, primary screen (AID 1508586);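 also: z relative to plate mean and SD of compound and empty wells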
ASSAY_CONDITIONS: Rieske KO mouse fibroblast survival, low glucose, CellTiter-Glo 72 h
Decide using z-score: a value greater than or equal to 0.3 is fulfilled, a smaller one is not fulfilled.

[
  {
    "COMPOUND": "O=C(NC(NC(=S)Nc1ccc(F)c([N+](=O)[O-])c1)C(Cl)(Cl)Cl)C(c1ccccc1)c1ccccc1 (stereo not given)",
    "QUALITATIVE_LABEL": "not fulfilled"
  }
]

Please indicate if the recorded z-score for `Cc1ccc(-c2csc(NC(=O)c3ccccc3)n2)c(C)c1` meets or exceeds 0.3.
not fulfilled

Do the same for `COc1cc(OC2CCN(C)CC2)ccc1Nc1ncc2c(n1)n(C1CCCC1)c(=O)n2C` please
fulfilled

Do the same for `c1ccc2c(Oc3nc(Nc4ccc(N5CCOCC5)cc4)c4ncn(C5CCCCC5)c4n3)cccc2c1` please
not fulfilled

Do the same for `Cn1c(Nc2ccc(C(F)(F)F)cc2)nc2cc(Oc3ccnc(-c4ncc(C(F)(F)F)[nH]4)c3)ccc21` please
fulfilled

====

PROTOCOL_DESCRIPTION: viability loss with induced miR-34 in A549 – imaging, A549 dox-inducible miR-34, nuclei and caspase counts, primary screen (AID 1347080)
ASSAY_CONDITIONS: A549 miR-34 inducible, Hoechst nuclei count, 48 h; measured here: total cells with miR-34 induction; stronger effect = lower value
Class field: derived from cell count; ranges I = under 6000, II = from 6000 up to 7000, III = 7000 and over

Example entries and their recorded answers appear below.
[
  {
    "COMPOUND": "COc1ccc(-c2ccc3ncc4c(c3c2)n(-c2ccc(N3CCNCC3)c(C(F)(F)F)c2)c(=O)n4C)cn1",
    "QUALITATIVE_LABEL": "I"
  },
  {
    "COMPOUND": "CC(C)Oc1cccc(-n2c(CCc3c[nH]c4ccc(Br)cc34)nc3ccccc3c2=O)c1",
    "QUALITATIVE_LABEL": "II"
  },
  {
    "COMPOUND": "CC(C)C[C@H](NC(=O)N1CCCCCC1)C(=O)N[C@H](Cc1cn(C)c2ccccc12)C(=O)N[C@H](Cc1ccccn1)C(=O)O",
    "QUALITATIVE_LABEL": "III"
  },
  {
    "COMPOUND": "CCCCCCCCCCCCCCCC(=O)N[C@H](C)CO",
    "QUALITATIVE_LABEL": "I"
  },
  {
    "COMPOUND": "CCCCCC(=O)/C=C/C=O",
    "QUALITATIVE_LABEL": "I"
  }
]

Returns: class label. Input: `CCS(=O)(=O)N1CCC[C@@H]2CN3CCc4cc(OC)ccc4[C@@H]3C[C@@H]21`
III

Do the same for O=C1OC2(c3ccc(O)cc3Oc3cc(Oc4ccc(O)cc4)ccc32)c2ccccc21 (configuration not stated) please
II

Do the same for `Cc1ccc2c(=O)c3ccccc3n(CCCN)c2c1C` please
I

Do the same for `CN(C)Cc1ccc(-c2nc3cccc4c3n2CCNC4=O)cc1` please
II

Do the same for `CCCCCCCC/C=C\CCCCCC(=O)O` please
I

Origin of measurements: PubChem BioAssay
